Target: T1, ABH2 F124A (human, UniProt Q6NS38 1-261, F124A)
T1 sequence: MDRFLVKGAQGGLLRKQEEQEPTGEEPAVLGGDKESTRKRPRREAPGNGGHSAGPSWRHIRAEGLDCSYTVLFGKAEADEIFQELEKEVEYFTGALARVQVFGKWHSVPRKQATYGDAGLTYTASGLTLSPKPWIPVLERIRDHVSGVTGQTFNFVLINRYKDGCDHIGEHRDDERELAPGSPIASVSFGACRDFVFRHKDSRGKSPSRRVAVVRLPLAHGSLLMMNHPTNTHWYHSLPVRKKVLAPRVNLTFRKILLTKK
Experiment: EMSA; 0.5 mM αKG, 10 mM Mg2+, 2 mM ascorbate; 50 mM Tris-HCl pH 8.0, 50 mM KCl, 10 mM MgCl2, 0.5 mM αKG, 2 mM sodium ascorbate; 1.2 µM DNA, 0.4-12.8 µM protein; 10 min 37 °C then 5 min on ice; 10% native PAGE, 0.5x TBE, 4-8 °C; Hill fit
Details: protein: recombinant; tags: N-terminal His6; label: 5'-FAM on strand 1; blunt
Hi there, I'd appreciate the recorded Kd for every entry that follows.
Numbers only here, please. The scale is µM.

query: Kd for m1A dsDNA (dsDNA, N1-methyladenine (m1A) at position 10 of strand 1) DNA 1: AGTTCAATGATCTTCAT DNA 2: ATGAAGATCATTGAACT ?
result: 3.1

query: Would you kindly repeat that for m3C dsDNA (dsDNA, N3-methylcytosine (m3C) at position 12 of strand 1) DNA 1: AGTTCAATGATCTTCAT DNA 2: ATGAAGATCATTGAACT ?
result: 4.4

All figures here come from paper PMC12295762.
